Provenance of the data: the supplement of paper PMC12042874

Assay protocol: amyloid nucleation score (Sup35N fusion, yeast selection) (log enrichment); library NNK2; higher = more nucleation; inactive = no reads after selection;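 note: zero at mode of non-aggregating sequences after 7 days selection at 30°C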
Property name: amyloid nucleation score

* ADCFWAIDYPTWAYRIYGSH | inactive
* IMHCVHKSRILSSVTKIKEP | inactive
* NNRHLSPVVRSY | inactive

----------
Assay protocol: amyloid nucleation score (Sup35N fusion, yeast selection) (log enrichment); library NNK3; higher = more nucleation; inactive = no reads after selection
Property name: amyloid nucleation score

• LKRLSCFTGSPR = inactive
• MCSRCVAKLATTPRLGFNDS = inactive
• VRVELNYKMMHMSHRIMY = 1.52
• VGQWYGFMFWLLLLIIQS = inactive
• SITTEVFDSQVNKLRELDGW = inactive
• FIWIIMVGNNVPNT = 2.06
• RTRCAPLDMVEL = inactive
• CFNNRARP = inactive
• YYVRRIMT = inactive
• NFPYLAVFLRGFSFSVIDC = inactive
• VHVSEGPRWRFHSRRDSSVV = inactive
• FECYRSSLGQWVMLDVSIHW = -0.534
• AINDMRPVKSRGGVVELYML = inactive
